# subject.of.test: Macrophage migration inhibitory factor homologue (Plasmodium falciparum (isolate 3D7))
# method.summary: Inhibition of recombinant Plasmodium falciparum MIF expressed in Escherichia coli BL21 (DE3) assessed as ketonization of enol form of 4-HPP substrate after 10 mins
pIC50: −log10 of the molar value.
metric.name: pIC50

{"molecule": "CC(=O)O[C@@H]1C[C@H]2C(C)(C)C(=O)C=C[C@]2(C)[C@H]2CC[C@@]3(C)[C@H](c4ccoc4)C(=O)[C@H]4O[C@]43[C@@]21C [EPOXYAZADIRADIONE]", "value.reported": 5.00}

====

# subject.of.test: Macrophage migration inhibitory factor homologue (Plasmodium falciparum (isolate 3D7))
# Sequence (Q8I5C5 whole entry): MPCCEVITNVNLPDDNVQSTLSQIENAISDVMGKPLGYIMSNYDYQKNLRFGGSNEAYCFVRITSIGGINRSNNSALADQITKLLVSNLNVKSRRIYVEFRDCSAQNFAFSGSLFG
# method.summary: Inhibition of recombinant Plasmodium falciparum MIF expressed in Escherichia coli BL21 (DE3) assessed as ketonization of enol form of 4-HPP substrate after 10 mins
# recorded.conditions: read-out: Ki
Reported Ki values follow for various molecules
metric.name: Ki (µM)

{"smiles.code": "Cc1cc(Oc2cccc(O)c2)cc(-c2ccccc2)n1", "result.units": "µM", "value.reported": 0.039}
{"smiles.code": "COc1cccc(Oc2cc(C)nc(-c3ccccc3)n2)c1", "result.units": "µM", "value.reported": 5.5}
{"smiles.code": "COc1cc(OC)cc(Oc2ccnc(N3CCOCC3)c2)c1", "result.units": "µM", "value.reported": 122}
{"smiles.code": "CCOc1cccc(Oc2cc(C)nc(N3CCOCC3)c2)c1", "result.units": "µM", "value.reported": 7.2}
{"smiles.code": "Oc1cccc(Oc2c(F)c(F)nc(N3CCOCC3)c2F)c1", "result.units": "µM", "value.reported": 8.6}
{"smiles.code": "Cc1cc(Oc2ccc(O)cc2)nc(-c2ccccc2)n1", "result.units": "µM", "value.reported": 93.3}
{"smiles.code": "COc1ccc(-c2nnc3ccc(Oc4cccc(O)c4)nn23)cc1", "result.units": "µM", "value.reported": 122}
{"smiles.code": "COc1cccc(Oc2ccnc(N3CCOCC3)c2)c1", "result.units": "µM", "value.reported": 22.9}
{"smiles.code": "Oc1ccc(-c2cc(Oc3cccc(O)c3)ccn2)cc1", "result.units": "µM", "value.reported": 3}
{"smiles.code": "CCOc1cccc(Oc2ccnc(N3CCOCC3)c2)c1", "result.units": "µM", "value.reported": 6.9}
{"smiles.code": "O=C1N=C(Nc2cccc(O)c2)S/C1=C\\c1cccc(O)c1", "result.units": "µM", "value.reported": 20.6}
{"smiles.code": "COc1cccc(Oc2cc(C)nc(N3CCOCC3)c2)c1", "result.units": "µM", "value.reported": 0.043}
{"smiles.code": "NC(=O)CSC1=Nc2ccccc2C2=N[C@H](Cc3c[nH]c4ccccc34)C(=O)N12", "result.units": "µM", "value.reported": 25.4}
{"smiles.code": "Oc1cccc(Oc2c(F)c(N3CCOCC3)nc(F)c2Cl)c1", "result.units": "µM", "value.reported": 15.5}
{"smiles.code": "COc1cc(Cl)cc(Oc2ccnc(N3CCOCC3)c2)c1", "result.units": "µM", "value.reported": 2.6}
{"smiles.code": "COc1ccc(-c2cc(Oc3cc(C)cc(OC)c3)ccn2)cc1", "result.units": "µM", "value.reported": 0.37}
{"smiles.code": "Oc1ccc(-c2ccc(Oc3cccc(O)c3)cn2)cc1", "result.units": "µM", "value.reported": 67.6}
{"smiles.code": "N#Cc1cccc(Oc2ccc(-c3cccc(O)c3)nc2)c1", "result.units": "µM", "value.reported": 0.37}
{"smiles.code": "Cc1cc(Oc2cccc(O)c2)nc(-c2ccccc2)n1", "result.units": "µM", "value.reported": 19.3}
{"smiles.code": "NS(=O)(=O)c1ccc(NC2=CC(=O)C(=O)c3ccccc32)cc1", "result.units": "µM", "value.reported": 99}
{"smiles.code": "Oc1cccc(Oc2ccc(-c3cccc(O)c3)nc2)c1", "result.units": "µM", "value.reported": 6.9}
{"smiles.code": "COc1cccc(Oc2cc(C)nc(-c3ccccc3)c2)c1", "result.units": "µM", "value.reported": 7.7}
{"smiles.code": "Cc1cc(Oc2cccc(C#N)c2)cc(N2CCOCC2)n1", "result.units": "µM", "value.reported": 11.3}
{"smiles.code": "Cc1cc(Oc2cccc(C#N)c2)nc(-c2ccccc2)n1", "result.units": "µM", "value.reported": 1.6}
{"smiles.code": "Oc1cccc(Oc2c(F)c(F)nc(N3CCCCC3)c2F)c1", "result.units": "µM", "value.reported": 28.6}
